Listed next: entries and their corresponding EC50 of receptor-mediated cAMP synthesis, GIPR (nM), 03/26.
subject.of.test: T1, human GIP receptor (human, UniProt P48546 22-466)
T1 sequence (looked up): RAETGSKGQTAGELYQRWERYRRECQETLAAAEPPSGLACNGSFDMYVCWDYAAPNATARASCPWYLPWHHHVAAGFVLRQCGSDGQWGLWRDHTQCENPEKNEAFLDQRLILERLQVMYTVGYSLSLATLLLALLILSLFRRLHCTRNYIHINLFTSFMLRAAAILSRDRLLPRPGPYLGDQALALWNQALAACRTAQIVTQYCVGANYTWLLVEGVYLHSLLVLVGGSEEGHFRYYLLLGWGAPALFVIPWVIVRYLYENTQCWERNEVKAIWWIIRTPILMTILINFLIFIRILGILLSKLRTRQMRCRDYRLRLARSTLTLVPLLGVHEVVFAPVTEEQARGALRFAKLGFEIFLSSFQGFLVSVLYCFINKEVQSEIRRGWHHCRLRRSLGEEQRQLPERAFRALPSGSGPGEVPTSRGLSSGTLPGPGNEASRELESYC
protocol.details: cell-based or functional assay
Bridge positions count the residues as written; N and C are the ends. Square brackets hold non-standard residues; d marks the D form. Ends that are not written are not given here. C20L5A = not defined here; Aib = CC(C)(N)C(=O)O
Numbers only; they are read as nM.

Y[Aib]EGTFTSDYSIYLDKCAA[Aib]EFVCWLLAGGPSSGAPPPS-NH2 (linker 17-24 via C20L5A; not fully specified; reading uncertain) [C(17-24)-C20L5A] ... 0.03
Y[Aib]EGTFTSDYSIYLDKCAA[Aib]EFVCWLIAGGPSSGAPPPS-NH2 (linker 17-24 via C20L5A; not fully specified; reading uncertain) [mCMV268 (27I, C(17-24)-C20L5A)] ... 0.03
Y[Aib]EGTYTSDYSIYCDKQAA[Aib]CFVNWLIAGGPSSGAPPPS-NH2 (linker 14-21 via C20L5A; not fully specified; reading uncertain) [6Y, 27I, C(14-21)-C20L5A] ... 0.6
Y[Aib]EGTYTSDYSIYLDKCAA[Aib]EFVCWLIAGGPSSGAPPPS-NH2 (linker 17-24 via C20L5A; not fully specified; reading uncertain) [6Y, 27I, C(17-24)-C20L5A] ... 0.25
Y[Aib]EGTFTSDYSIYCDKQAA[Aib]CFVNWLIAGGPSSGAPPPS-NH2 (linker 14-21 via C20L5A; not fully specified; reading uncertain) [mCMV266 (27I, C(14-21)-C20L5A)] ... 0.06

Query: EC50 of receptor-mediated cAMP synthesis, GIPR (nM), 03/26; subject: Y[Aib]EGTFTSDYSIYCDKQAA[Aib]CFVNWLLAGGPSSGAPPPS-NH2 (linker 14-21 via C20L5A; reading uncertain) [C(14-21)-C20L5A]
0.04

Need EC50 of receptor-mediated cAMP synthesis, GIPR (nM), 03/26 of Y[Aib]EGTFTSDYSIYKDKQAA[Aib]KFVNWLLAGGPSSGAPPPS-NH2 (bridge 14-21; not fully specified (bridges); also: K4 staple carries PEG-fatty acid) [mCMD307 (2050-K4)] , thanks.
0.01

Which EC50 of receptor-mediated cAMP synthesis, GIPR (nM), 03/26 reading was recorded for the binder Y[Aib]EGTYTNDYSIYLDKCAA[Aib]EFVCWLIAGGPSSGAPPPS-NH2 (linker 17-24 via C20L5A; not fully specified; reading uncertain) [6Y, 8N, 27I, C(17-24)-C20L5A] ?
3.29
